Attribution: the NIST ThermoML archive (doi:10.1021/je050389b)

EXPERIMENTAL DETAILS: xn = mol fraction of the nth substance listed
CONDITION PARAMETERS: 298.15 K; 100.5 kPa; Liquid; x1 = 0.35
Quick rule for you: viscosity at 1 mPa·s or higher means Y, lower means N.

{"columns": ["COMPOUND", "CAT"],
 "data": [
  ["CCCCCC(=O)OCC [ethyl hexanoate] + CCO", "N"],
  ["CCOC(=O)Cc1ccccc1 [ethyl phenylacetate] + CCO", "Y"],
  ["CC(=O)OCCC(C)C [3-methylbutyl ethanoate] + CCO", "N"]
]}

(Q) Test whether the compound CCOC(=O)c1ccccc1 [ethyl benzoate] + CCO records viscosity of 1 mPa·s or higher.
(A) Y

(Q) I'd appreciate it if you could say whether CCCCCCCC(=O)OCC [ethyl octanoate] + CCO has viscosity at least equal to 1 mPa·s.
(A) Y

----------
Would you mind telling me the reported mass density of each entry?
EXPERIMENTAL DETAILS: xn = mol fraction of the nth substance listed
CONDITION PARAMETERS: 308.15 K; 101 kPa; Liquid; x1 = 0.65
One number for each entry, in kg/m3.

{"columns": ["COMPOUND", "REPORTED ENDPOINT", "UNITS", "EXPERIMENTAL VALUE"],
 "data": [
  ["CCCCCCCC(=O)OCC [ethyl octanoate] + CCO", "mass density", "kg/m3", 841.92],
  ["CCOC(=O)c1ccccc1 [ethyl benzoate] + CCO", "mass density", "kg/m3", 986.94],
  ["CCOC(=O)Cc1ccccc1 [ethyl phenylacetate] + CCO", "mass density", "kg/m3", 978.31],
  ["CCCCCC(=O)OCC [ethyl hexanoate] + CCO", "mass density", "kg/m3", 842.94]
]}

Consider the additional compound presented here.
(Q) Tell me the measured mass density of CCCC(=O)OCCC(C)C [3-methylbutyl butanoate] + CCO , please.
(A) 837.84

----------
EXPERIMENTAL DETAILS: xn = mol fraction of the nth substance listed
CONDITION PARAMETERS: 318.15 K; 101 kPa; Liquid; x1 = 0.25
REPORTED ENDPOINT: mass density (kg/m3)
One number for each entry, in kg/m3.

These recorded examples may help you get a feel for the data.
{"columns": ["MOLECULE", "mass density [kg/m3]"],
 "data": [
  ["CCOC(=O)c1ccccc1 [ethyl benzoate] + CCO", 884.29],
  ["CCCC(=O)OCCC(C)C [3-methylbutyl butanoate] + CCO", 803.38],
  ["CCCCCC(=O)OCC [ethyl hexanoate] + CCO", 805.01],
  ["CCOC(=O)Cc1ccccc1 [ethyl phenylacetate] + CCO", 883.57]
]}

Turning now to a further record.
(Q) Fill blank: measured mass density of the molecule CCCCCCCC(=O)OCC [ethyl octanoate] + CCO is ____.
(A) 807.19

----------
EXPERIMENTAL DETAILS: xn = mol fraction of the nth substance listed
CONDITION PARAMETERS: 298.15 K; 101 kPa; Liquid; x1 = 0.6
REPORTED ENDPOINT: mass density (kg/m3)
Numbers only, in kg/m3.

{"columns": ["COMPOUND", "UNITS", "mass density"],
 "data": [
  ["CCOC(=O)Cc1ccccc1 [ethyl phenylacetate] + CCO", "kg/m3", 980.37],
  ["CCCCCCCC(=O)OCC [ethyl octanoate] + CCO", "kg/m3", 848.6],
  ["CCOC(=O)c1ccccc1 [ethyl benzoate] + CCO", "kg/m3", 988.07],
  ["CCCCCC(=O)OCC [ethyl hexanoate] + CCO", "kg/m3", 849.88]
]}

(Q) Reported mass density, compound CCCC(=O)OCCC(C)C [3-methylbutyl butanoate] + CCO : ____
(A) 844.86

----------
CONDITION PARAMETERS: 288.15 K; 100.5 kPa; Liquid
REPORTED ENDPOINT: viscosity (mPa·s)
One number for each entry, in mPa·s.

Example entries and their recorded answers appear below.
{"columns": ["COMPOUND", "UNITS", "EXPERIMENTAL VALUE"],
 "data": [
  ["CCCCCCCC(=O)OCC [ethyl octanoate]", "mPa·s", 1.697],
  ["CCO", "mPa·s", 1.337],
  ["CCCCCC(=O)OCC [ethyl hexanoate]", "mPa·s", 1.102],
  ["CCOC(=O)Cc1ccccc1 [ethyl phenylacetate]", "mPa·s", 3.002],
  ["CC(=O)OCCC(C)C [3-methylbutyl ethanoate]", "mPa·s", 0.94],
  ["CCOC(=O)c1ccccc1 [ethyl benzoate]", "mPa·s", 2.444]
]}

(Q) Can you look up the measured viscosity of CCCC(=O)OCCC(C)C [3-methylbutyl butanoate] for me?
(A) 1.317

----------
EXPERIMENTAL DETAILS: xn = mol fraction of the nth substance listed
CONDITION PARAMETERS: 318.15 K; 101 kPa; Liquid; x1 = 0.05
REPORTED ENDPOINT: mass density (kg/m3)
Answers are plain numbers, in kg/m3.

Count: 2. Required value per item: mass density.
1. CCOC(=O)c1ccccc1 [ethyl benzoate] + CCO
2. CCCCCC(=O)OCC [ethyl hexanoate] + CCO

(A)
1. 797.88
2. 777.58

Give me mass density for each of these compounds, listed below.
1. CCCCCCCC(=O)OCC [ethyl octanoate] + CCO
2. CCCC(=O)OCCC(C)C [3-methylbutyl butanoate] + CCO
3. CCOC(=O)Cc1ccccc1 [ethyl phenylacetate] + CCO

(A)
778.81
777.54
798.61

----------
CONDITION PARAMETERS: 298.15 K; 100.5 kPa; Liquid
Binary classification by viscosity, with 1 mPa·s as an inclusive lower bound for MET; all other cases are NOT MET.

Solved cases below.
{"columns": ["MOLECULE", "CAT"],
 "data": [
  ["CCO [ethanol]", "MET"],
  ["CCCCCC(=O)OCC [ethyl hexanoate]", "NOT MET"]
]}

(Q) Threshold query (viscosity >= 1 mPa·s) on CCOC(=O)c1ccccc1 [ethyl benzoate]
(A) MET

(Q) Has CCCCCCCC(=O)OCC [ethyl octanoate] a recorded viscosity greater than or equal to 1 mPa·s?
(A) MET

(Q) Could you verify whether the entry CC(=O)OCCC(C)C [3-methylbutyl ethanoate] shows viscosity of no less than 1 mPa·s?
(A) NOT MET

(Q) Does CCCC(=O)OCCC(C)C [3-methylbutyl butanoate] have a reported viscosity of at least 1 mPa·s?
(A) MET

(Q) Please check the record CCOC(=O)Cc1ccccc1 [ethyl phenylacetate] and state if its viscosity is at or above 1 mPa·s.
(A) MET

----------
EXPERIMENTAL DETAILS: xn = mol fraction of the nth substance listed
CONDITION PARAMETERS: 298.15 K; 100.5 kPa; Liquid; x1 = 0.8
Label fulfilled when viscosity < 1 mPa·s; otherwise not fulfilled.

(Q) Quick check: viscosity of CCCC(=O)OCCC(C)C [3-methylbutyl butanoate] + CCO under 1 mPa·s?
(A) not fulfilled

(Q) Check if viscosity falls below 1 mPa·s for CCCCCC(=O)OCC [ethyl hexanoate] + CCO .
(A) fulfilled

----------
EXPERIMENTAL DETAILS: xn = mol fraction of the nth substance listed
CONDITION PARAMETERS: 308.15 K; 101 kPa; Liquid; x1 = 0.4
Consider the following molecules; for each one, report its mass density.
Give bare numbers, in kg/m3.

{"columns": ["MOLECULE", "mass density / kg/m3"],
 "data": [
  ["CCOC(=O)c1ccccc1 [ethyl benzoate] + CCO", 937],
  ["CCCCCC(=O)OCC [ethyl hexanoate] + CCO", 827.76],
  ["CCCC(=O)OCCC(C)C [3-methylbutyl butanoate] + CCO", 824.64],
  ["CCOC(=O)Cc1ccccc1 [ethyl phenylacetate] + CCO", 933.33]
]}

Turning to the following molecule.
(Q) Consider the molecule shown here: CCCCCCCC(=O)OCC [ethyl octanoate] + CCO What is its recorded mass density?
(A) 828.63

----------
CONDITION PARAMETERS: 308.15 K; 101 kPa; Liquid
Everything with mass density lower than 1000 kg/m3 is NO; everything else, including exactly 1000 kg/m3, is YES.

Consider the worked cases shown below.
{"columns": ["COMPOUND", "CAT"],
 "data": [
  ["CCCC(=O)OCCC(C)C [3-methylbutyl butanoate]", "NO"],
  ["CCCCCCCC(=O)OCC [ethyl octanoate]", "NO"],
  ["CCO", "NO"],
  ["CCOC(=O)c1ccccc1 [ethyl benzoate]", "YES"]
]}

# next compound below
(Q) # check: mass density of CCCCCC(=O)OCC [ethyl hexanoate] is greater than or equal to 1000 kg/m3
(A) NO
